Values were extracted from the MegaScale stability set (Tsuboyama et al. 2023).

B1: EHEE_rd3_0053 (parent)
chain: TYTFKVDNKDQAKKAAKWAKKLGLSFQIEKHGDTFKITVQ

Variants of: B1
Experiment: folding stability dG (cDNA display proteolysis); higher = more stable
Conditions: PBS, room temperature
Decide by folding stability dG: equal to or exceeding 10 kJ/mol means condition met, less means condition not met.

Given the entry TYTFKVDNKDQAKKAAKWAKKLGLSFQIEKHGDTFKFTVQ [I37F] , answer whether its folding stability dG meets or surpasses 10 kJ/mol. condition not met

Check if folding stability dG >= 10 kJ/mol (inclusive). Item: TYTFKVDNKDQAKKAAKWAKKLGLSFQIEKHGDTFKITVT [Q40T] condition met

I'd appreciate it if you could say whether TYTPKVDNKDQAKKAAKWAKKLGLSFQIEKHGDTFKITVQ [F4P] has folding stability dG at least equal to 10 kJ/mol. condition not met

Is it the case that TYTFKVDNKDQAKKAAKWAKKLGLSFQIEKGGDTFKITVQ [H31G] has folding stability dG reaching or exceeding 10 kJ/mol? condition not met

For this variant, is measured folding stability dG 10 kJ/mol or higher? TYTFKVDNKDQAKKAAKGAKKLGLSFQIEKHGDTFKITVQ [W18G] condition not met

Hi, just wondering whether TYTFKVDNKDQAKKAAKWAKKLGLSFQIEKTGDTFKITVQ [H31T] shows folding stability dG of 10 kJ/mol or higher. condition met

Could you please find out whether TYTFKVDNKDQAKKQAKWAKKLGLSFQIEKHGDTFKITVQ [A15Q] has folding stability dG that meets 10 kJ/mol or exceeds it? condition not met

Say whether TYTFKVDNKDQAKKAAKWAKKLGLSFQIEVHGDTFKITVQ [K30V] shows folding stability dG of 10 kJ/mol or more. condition not met

Dear colleague, could you confirm whether TYTFKVDNKDQAKKAAKWAKKIGLSFQIEKHGDTFKITVQ [L22I] has folding stability dG at or above 10 kJ/mol? condition not met

For this variant, is measured folding stability dG 10 kJ/mol or higher? TYTFKVDNKDQAKKAAKWAKKLGLSFQIEKHGDTFKITVS [Q40S] condition met

Exam item: decide whether the reported folding stability dG for TYLFKVDNKDQAKKAAKWAKKLGLSFQIEKHGDTFKITVQ [T3L] is at least 10 kJ/mol. condition not met

Reported folding stability dG at or above 10 kJ/mol? TYYFKVDNKDQAKKAAKWAKKLGLSFQIEKHGDTFKITVQ [T3Y] condition not met

Given the entry TYTFKVPNKDQAKKAAKWAKKLGLSFQIEKHGDTFKITVQ [D7P] , answer whether its folding stability dG meets or surpasses 10 kJ/mol. condition not met

Entry TYTFKVDNKDQAKKAAKWAKKLGLSFQIEIHGDTFKITVQ [K30I] : is its folding stability dG no less than 10 kJ/mol? condition not met

Hello, I need to know if TYTFKVDNKDQAKKAIKWAKKLGLSFQIEKHGDTFKITVQ [A16I] has measured folding stability dG not below 10 kJ/mol. Thanks! condition met

Test whether the variant TYTFKVDNKDQAKKAAKIAKKLGLSFQIEKHGDTFKITVQ [W18I] records folding stability dG of 10 kJ/mol or higher. condition not met

Does the reported folding stability dG for TYTFKVDNRDQAKKAAKWAKKLGLSFQIEKHGDTFKITVQ [K9R] fall at or above the 10 kJ/mol mark? condition met
